Data provenance: PubChem BioAssay (NCI)

test system: SR leukemia; assay: NCI tumour cell line growth inhibition, 48 h; in the data active = GI50 below about 0.43 µM; inactive = the rest
Labels: active, inactive

• Cc1ccc(NS(=O)(=O)c2ccc(-c3cnc(C4CC4)o3)cc2)cc1 = active
• CCCC[C@@H]1NC(=O)[C@H](CCCCN)NC(=O)[C@H](CCCNC(=N)N)NC(=O)[C@H](CC(C)C)NC(=O)[C@@H](NC(=O)[C@H](Cc2cccc(Cl)c2)NC(=O)[C@@H]2CCCN2C(=O)[C@@H](NC(C)=O)C(C)C)CCSSC[C@@H](C(=O)N[C@@H](CCCCN)C(=O)N2CCC[C@H]2C(=O)N2CCC[C@H]2C(=O)N[C@@H](CCC(=O)O)C(N)=O)NC(=O)[C@H](Cc2ccccc2)NC(=O)[C@H](CO)NC(=O)[C@H](C)NC(=O)[C@@H]2CCCN2C1=O = inactive
• O=C(CC12CC3CC(CC(C3)C1)C2)NCCOCCOCCNC(=O)c1cc2c(o1)C(=O)c1ccccc1C2=O = inactive
• COc1cc(-c2c3c(cn2S(=O)(=O)c2ccccc2)-c2nc(N)sc2CC3)cc(OC)c1OC = active
• C[C@@H]1O[C@@H](O[C@H]2C[C@@H](O)[C@]3(CO)C4C(CC[C@]3(O)C2)[C@@]2(O)CC[C@H](C3=CC(=O)OC3)[C@@]2(C)C[C@H]4O)[C@H](O)[C@H](O)[C@H]1O (stereo not given in full) = active
• C=C1C(=O)O[C@H]2[C@H]1CC/C(COC(=O)OCCCCCOC(=O)OC/C1=C/CC[C@@]3(C)O[C@H]3[C@H]3OC(=O)C(=C)[C@@H]3CC1)=C\CC[C@@]1(C)O[C@@H]21 = active
• CCN(CC)c1ccc(NC(C(=O)c2ccccc2)c2ccccc2)cc1 (stereo not given) = inactive
• OCC1SC(n2cnc3cncnc32)C(O)C1O (stereo not given) = inactive
• COC1=CC(c2ccc[nH]2)=N/C1=C\c1[nH]c(C)c(C(=O)CCC(=O)Oc2ccc3c(c2)CCC2C3CC[C@]3(C)C(=O)CC[C@@H]23)c1C (stereo not given in full) = inactive
• O=S(=O)(Nc1ccc(-c2nc(-c3cccc(OCCN4CCOCC4)c3)c(-c3ccnc(Br)c3)[nH]2)cc1)c1ccccc1 = inactive
• Cn1ncc2cc(-c3cnc(N)c(Cl)c3N3CCC4(CCNC4=O)CC3)ccc21 = inactive
• ClCCN(CCCl)Cc1ccc(Nc2ccnc3cc(Cl)ccc23)cc1 = active
• CCOc1ccc(NC(=O)Nc2cc(C(C)C)ccc2C)cc1 = inactive
• CS(=O)(=O)c1nccc(-c2c(-c3cccc(OCc4ccc(F)cc4)c3)nc3sccn23)n1 = inactive
• COc1ccc(-c2nc(-c3nc4ccc(F)cc4[nH]3)cc3c2[nH]c2ccccc23)cc1 = inactive
